System: SEM cells
test: cell viability relative to DMSO control; higher = less cytotoxic
assay_setup: RPMI 5 mM glucose + 10% dialyzed FBS; 48 h; 15.4 µM

[
  {
    "molecule": "CCC(=O)OCC(=O)[C@@]1(OC(=O)CC)[C@@H](C)C[C@H]2[C@@H]3CCC4=CC(=O)C=C[C@]4(C)[C@@]3(F)[C@@H](O)C[C@@]21C",
    "units_of_measure": "%",
    "cell viability": 65.9
  },
  {
    "molecule": "C1CCC(C(CC2CCCCN2)C2CCCCC2)CC1 (stereo unspecified)",
    "units_of_measure": "%",
    "cell viability": 37.7
  },
  {
    "molecule": "N=C(N)NC(=O)c1nc(Cl)c(N)nc1N",
    "units_of_measure": "%",
    "cell viability": 116
  },
  {
    "molecule": "Cc1c(Cn2c(C)nc3c(C(=O)O)cc(N4CCOCC4)cc32)cccc1C(F)(F)F",
    "units_of_measure": "%",
    "cell viability": 92.3
  },
  {
    "molecule": "O=C(CO)N1CCC(c2n[nH]c(-c3ccc(Cl)cc3)c2-c2ccncn2)CC1",
    "units_of_measure": "%",
    "cell viability": 51.5
  },
  {
    "molecule": "OC[C@H](Cc1ccccc1)Nc1nc(Oc2ccc3c(c2)CCC3)nc2c1ncn2Cc1ccc(-c2ccccc2)cc1",
    "units_of_measure": "%",
    "cell viability": 84.4
  }
]

Source of measurements: the supplement of paper PMC11451515
